Numbers sourced from ChEMBL document CHEMBL1142743.

TARGET OF ASSAY: 5-hydroxytryptamine receptor 1A (Homo sapiens) (UniProt P08908)
Sequence (whole entry): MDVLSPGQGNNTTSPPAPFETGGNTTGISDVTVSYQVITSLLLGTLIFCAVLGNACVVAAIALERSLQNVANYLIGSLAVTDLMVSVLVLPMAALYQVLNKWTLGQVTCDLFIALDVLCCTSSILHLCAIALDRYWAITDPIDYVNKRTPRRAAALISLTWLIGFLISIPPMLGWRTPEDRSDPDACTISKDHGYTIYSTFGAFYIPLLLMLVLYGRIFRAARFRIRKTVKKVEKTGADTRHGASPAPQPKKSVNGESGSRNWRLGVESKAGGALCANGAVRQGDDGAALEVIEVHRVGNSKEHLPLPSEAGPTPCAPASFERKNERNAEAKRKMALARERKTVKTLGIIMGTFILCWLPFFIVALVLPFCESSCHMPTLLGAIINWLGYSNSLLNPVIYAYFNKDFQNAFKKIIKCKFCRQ
PROCEDURE DETAILS: Partial agonist efficacy in the 5-HT1A GTPgammaS functional assay; Expressed as fraction of 5-HT efficacy
Each record is given class 1 if its reported Efficacy is strictly below 0.7. Records at or above 0.7 are given class 0.

Use these answered entries as a reference point.
>  <COMPOUND SMILES>
CN1CCN(c2nccc3cc4c(cc23)N(C(=O)c2ccccc2Cl)CC4)CC1

>  <CLASS>
class 1

$$$$
>  <COMPOUND SMILES>
CN1CCN(c2nccc3cc4c(cc23)N(C(=O)c2ccc(C#N)cc2)CC4)CC1

>  <CLASS>
class 0

$$$$
>  <COMPOUND SMILES>
CCc1c(C(=O)N2CCc3cc4ccnc(N5CCN(C)CC5)c4cc32)cnn1-c1ccc(C#N)cc1

>  <CLASS>
class 1

$$$$

# ---- query molecule ----
Enquiry: Is Efficacy strictly under 0.7 for the entry Cc1c(C(=O)N2CCc3cc4ccnc(N5CCN(C)CC5)c4cc32)cnn1-c1ccccc1 ?
Return: class 1
